- particulars: pampa; pH 5.0; 30.0 min; 50.0 µM
Each record's class is read off its Papp using these ranges: lower segment: < 60 ×10⁻⁶ cm/s; middle segment: ≥ 60 ×10⁻⁶ cm/s and < 300 ×10⁻⁶ cm/s; upper segment: ≥ 300 ×10⁻⁶ cm/s

CCOc1ccc(S(=O)(=O)NCc2cccnc2)cc1NC(=O)c1ccccc1F	middle segment
CC(C(O)c1ccc(O)cc1)N1CCC(Cc2ccccc2)CC1 (stereo not given)	lower segment
CCOC(=O)c1ccc(N2C(=O)c3n[nH]c(-c4ccco4)c3C2c2ccc(C)cc2)cc1 (stereo not given)	middle segment
O=C(CCCN1CCC(O)(c2ccc(Cl)cc2)CC1)c1ccc(F)cc1	upper segment
Cc1cccc(-c2cc(NC(=O)c3ccccc3C)n(-c3ccccc3)n2)c1	upper segment
CCN(C(=O)C(NS(=O)(=O)c1ccc(Br)s1)c1ccccc1)c1ccc(C)c(C)c1 (stereo not given)	middle segment
Cc1ccc(-c2ccc(CNc3nc(-c4ccccc4C(C)C)nc4ccccc34)cc2)cn1	upper segment
Clc1ccc(C2(c3ccc(-c4cn[nH]c4)cc3)CCNCC2)cc1	lower segment

Turning to the following compound.
Input line: Class for NC1CCN(C(=O)C2CCCN(c3nc(-c4ccccc4)nc4c3CCC4)C2)CC1 (stereo not given) ?
Output line: lower segment

====

- particulars: pampa; pH 5.0; 30.0 min; 50.0 µM
Friendly reminder: Papp below 100 ×10⁻⁶ cm/s is 1, at or above is -1.

Solved cases below.
COc1ccc2c(c1)CCc1c-2n[nH]c1C(=O)N1CCc2c(nc3cc(-c4ccccc4)[nH]n3c2=O)C1	1
Cc1ccc(Nc2nc(C)c(NC(=O)c3ccc(C)cc3)c(Nc3ccc(C)cc3)n2)cc1	1
Cc1cc(C)nc(NC(=S)N2CCN(Cc3ccc(C(F)(F)F)cc3)CC2)c1	-1
CSc1nnc2c3ccccc3n(CCc3ccccc3)c2n1	-1
Cc1ccc(CN2C(=O)C(O)(CC(=O)c3ccc(C)cc3)c3ccccc32)cc1 (stereo not given)	-1
COc1ccc(-n2nc(C3CCCN(C(=O)C4CC4)C3)[nH]c2=O)cc1 (stereo not given)	-1
CN1CCN(CCCN2c3ccccc3Sc3ccc(S(=O)(=O)N(C)C)cc32)CC1	-1
Cc1cccc(N2CCN(c3nc4ccccc4c4nnc(C)n34)CC2)c1C	-1
COC(=O)c1ccc(O)c2ncc(N3CCN(C)CC3)cc12	1

Turning to the following molecule.
Input line: Please check: Papp for Cc1cccc(-c2noc([C@@H]3Cc4nc[nH]c4CN3C(=O)CC(C)(C)CC(=O)O)n2)c1 , strictly under 100 ×10⁻⁶ cm/s or not?
Output line: 1

====

- particulars: pampa; pH 5.0; 30.0 min; 50.0 µM
The following compounds are shown together with reported Papp values.

Here's what some known entries look like.
COc1cc(C(=O)N2CCN(c3cc(Cl)ccc3Cl)CC2)cc(OC)c1OC	> 1000 ×10⁻⁶ cm/s
COc1ncc(-c2n[nH]c3c2CC(=O)N(c2ccccc2)C3)cn1	42.5 ×10⁻⁶ cm/s
CC(=O)N1CCc2c(sc3c2c(=O)n(-c2ccccc2Cl)c(=O)n3Cc2cccc(C)c2)C1	687 ×10⁻⁶ cm/s
CCn1ncc(NC(=O)Cn2ncc3cc(-c4cccc(OC)c4)ccc32)n1	853 ×10⁻⁶ cm/s

Input line: Return Papp for the following compound: CN(C)c1cccc(-c2cnc(Nc3cccnc3)c3c2CCO3)c1
Output line: > 1000 ×10⁻⁶ cm/s

====

- particulars: pampa; pH 5.0; 30.0 min; 50.0 µM
Use Satisfied when the recorded Papp is no lower than 10 ×10⁻⁶ cm/s; use Not satisfied when it is lower.

NC1(c2ccccc2Cl)CCCCC1=O (stereo unspecified)	Satisfied
Cc1ccc(C)c(CN2CCC(CNC(=O)Nc3ccc(Br)cc3F)CC2)c1	Satisfied
COc1cccc(C(=O)Nc2nnc(S(=O)(=O)N3CCOCC3)s2)c1	Satisfied
COc1ccc(-c2c(-c3cc(C(=O)O)ccn3)ncn2C)cc1	Not satisfied
COc1cc(NC(=O)c2cc(-c3ccccc3O)no2)cc(OC)c1OC	Satisfied
O=C(NCCCN1CCCC1=O)c1ccc(-c2ncc3cnc(-c4ccccc4)cn23)cc1	Satisfied

Turning to the following compound.
Input line: Could you please find out whether Cc1ccc(S(=O)(=O)Nc2ccccc2C(=O)Nc2nc(-c3ccccc3)cs2)cc1 has Papp that meets 10 ×10⁻⁶ cm/s or exceeds it?
Output line: Satisfied

====

- particulars: pampa; pH 5.0; 30.0 min; 50.0 µM
The following molecules are shown together with reported Papp values.
Kindly provide the numeric value in ×10⁻⁶ cm/s only, without the unit symbol.

O=c1[nH]c(N2CCOCC2)nc2c1CCN(Cc1cc(Cl)ccc1F)CC2	46.3
N#Cc1cccc(NC(=O)c2sc3nc4c(cc3c2N)N2CCC4CC2)c1	285
CCC(=O)NC(c1ccc(OC)cc1)c1cc(Cl)c2cccnc2c1O (stereo unspecified)	5.75
O=C(CSc1nc(-c2ccc(F)cc2)[nH]c1-c1ccc(F)cc1)Nc1ccc2c(c1)OCCO2	585
CC(=O)Nc1ccc(C(=O)Nc2ccc3c(c2)N(C2CCCC2)C(=O)c2ccccc2S3)cc1	511

Input line: Return Papp for the following molecule: O=C(O)Cc1ccc2oc(-c3ccc(NC(=O)/C=C/c4ccc(Br)cc4)c(F)c3)nc2c1
Output line: 405

Input line: Return Papp for the following molecule: CCOc1ccc(C2c3c(oc4ccc(C)cc4c3=O)C(=O)N2CCCN(C)C)cc1 (stereo unspecified)
Output line: 29.6

Input line: Return Papp for the following molecule: CC(C)Oc1ccc(CNC(=O)C2CCN(C(=O)N3CCOc4ccc(Cl)cc43)CC2)cc1
Output line: 860

Input line: Return Papp for the following molecule: Fc1ccc(CN2CCNc3cc(Nc4ccccc4)ncc3C2)cc1F
Output line: 340

Input line: Return Papp for the following molecule: Cc1cc(CNC(=O)c2ccc3c(c2)n(CC2CC2)c(=O)n3C2CCCCC2)on1
Output line: 870

====

- particulars: pampa; pH 5.0; 30.0 min; 50.0 µM
Friendly reminder: Papp below 300 ×10⁻⁶ cm/s is criterion met, at or above is criterion not met.

Input line: Please check: Papp for Nc1c(S(=O)(=O)c2cccs2)c2nc3ccccc3nc2n1Cc1ccccc1 , strictly under 300 ×10⁻⁶ cm/s or not?
Output line: criterion not met

Input line: Please check: Papp for CN1CCN(Cc2ccc(NC(=O)Cc3ccc(Oc4cc(NC(=O)C5CC5)ncn4)cc3)cc2C(F)(F)F)CC1 , strictly under 300 ×10⁻⁶ cm/s or not?
Output line: criterion met

Input line: Please check: Papp for Cc1ccc2c(c1)N(S(=O)(=O)c1cc(-c3onc(C)c3C)ccc1C)CCO2 , strictly under 300 ×10⁻⁶ cm/s or not?
Output line: criterion met

Input line: Please check: Papp for CCN(CCN(C)C)C(=O)C1CCN(S(=O)(=O)c2c(C)noc2/C=C/c2ccccc2F)CC1 , strictly under 300 ×10⁻⁶ cm/s or not?
Output line: criterion not met

Input line: Please check: Papp for CNC(=O)c1ccccc1Nc1nc(Nc2ccc(N3CCOCC3)cc2OC)ncc1Cl , strictly under 300 ×10⁻⁶ cm/s or not?
Output line: criterion met

Input line: Please check: Papp for COc1cccc(CNCc2cccn2-c2nnc(N3CCN(c4ccccc4)CC3)s2)c1 , strictly under 300 ×10⁻⁶ cm/s or not?
Output line: criterion not met

Input line: Please check: Papp for CCCN1C(CC(C)C)=NS(=O)(=O)c2cc(NC(=O)c3ccco3)ccc21 , strictly under 300 ×10⁻⁶ cm/s or not?
Output line: criterion met

Input line: Please check: Papp for Cc1ccc(NC(=O)c2cc(-c3ccc[nH]3)n[nH]2)cc1F , strictly under 300 ×10⁻⁶ cm/s or not?
Output line: criterion met

Input line: Please check: Papp for CNC(=O)C1CCN(C(=O)c2ccc(-c3ncc4cnc(-c5ccccc5)cn34)cc2)CC1 , strictly under 300 ×10⁻⁶ cm/s or not?
Output line: criterion met

Input line: Please check: Papp for CCOc1ccccc1C(=O)Nc1ccncc1C(=O)Nc1cccc(S(=O)(=O)C(F)(F)F)c1 , strictly under 300 ×10⁻⁶ cm/s or not?
Output line: criterion met

Input line: Please check: Papp for CNc1oc(-c2cccc(Cl)c2Cl)nc1C#N , strictly under 300 ×10⁻⁶ cm/s or not?
Output line: criterion not met

Input line: Please check: Papp for COc1ccc2c(c1)CN(C(=O)CCN1CCC(Cc3ccccc3)CC1)CCS2 , strictly under 300 ×10⁻⁶ cm/s or not?
Output line: criterion not met

Input line: Please check: Papp for CCc1ccc(C2C(C(=O)Nc3ccccc3OC)=C(C)Nc3c(C(=O)Nc4ccc(C)cc4)cnn32)cc1 (stereo not given) , strictly under 300 ×10⁻⁶ cm/s or not?
Output line: criterion met

Input line: Please check: Papp for O=C(Cc1c[nH]c2ncc(-c3ccc(Cl)cc3)cc12)NCc1cccnc1 , strictly under 300 ×10⁻⁶ cm/s or not?
Output line: criterion not met

Input line: Please check: Papp for COc1cc2cc(CN3CCC(N(C)C)C3)c(-c3cccc(Cl)c3)nc2cc1OC (stereo not given) , strictly under 300 ×10⁻⁶ cm/s or not?
Output line: criterion met

Input line: Please check: Papp for CCC(CC)C(=O)NC[C@@H]1C=C(C)[C@H](Cc2nc3c(C)cccc3[nH]2)C[C@H]1C(C)C , strictly under 300 ×10⁻⁶ cm/s or not?
Output line: criterion not met

Input line: Please check: Papp for Cc1noc(C)c1Cc1ccc(C(=O)N2CCc3c(nc4cc(-c5ccccc5)[nH]n4c3=O)C2)o1 , strictly under 300 ×10⁻⁶ cm/s or not?
Output line: criterion met

Input line: Please check: Papp for FC(F)(F)c1ccccc1-c1nc(NCc2ccc(-c3cccnc3)cc2)c2ccccc2n1 , strictly under 300 ×10⁻⁶ cm/s or not?
Output line: criterion not met

Input line: Please check: Papp for COc1ccc(Cn2c(C(=O)O)c(CNCc3ccco3)c3ccc(C)cc32)cc1 , strictly under 300 ×10⁻⁶ cm/s or not?
Output line: criterion not met

Input line: Please check: Papp for COc1ccc(OC)c(-n2c3c(cc(-c4nc(-c5ccc(Cl)cc5)cs4)c2=O)C(=O)CC(C)(C)C3)c1 , strictly under 300 ×10⁻⁶ cm/s or not?
Output line: criterion not met
